Just for reference, patent US6130215A is where these values come from.

# pKi listing for each entry below
experimentalTarget: 5-HT2A receptor (Rattus norvegicus)
Sequence (P14842 whole entry): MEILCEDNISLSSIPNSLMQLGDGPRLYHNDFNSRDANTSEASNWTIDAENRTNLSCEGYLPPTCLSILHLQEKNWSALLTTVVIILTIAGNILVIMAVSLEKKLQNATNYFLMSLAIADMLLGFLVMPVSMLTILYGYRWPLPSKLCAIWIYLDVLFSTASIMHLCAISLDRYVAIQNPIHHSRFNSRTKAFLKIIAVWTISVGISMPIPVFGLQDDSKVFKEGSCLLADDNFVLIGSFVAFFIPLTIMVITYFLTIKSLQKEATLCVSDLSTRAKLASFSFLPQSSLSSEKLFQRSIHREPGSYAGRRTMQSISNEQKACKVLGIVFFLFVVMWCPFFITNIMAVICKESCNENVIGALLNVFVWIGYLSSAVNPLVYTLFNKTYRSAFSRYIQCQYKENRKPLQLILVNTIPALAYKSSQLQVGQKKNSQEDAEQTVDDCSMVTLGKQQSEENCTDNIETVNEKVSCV
pKi: −log10 of the molar value.

# compound, experimentalTarget, qualifierSymbol, pKi
measured = [
    ("COc1ccc(Cc2c(N)nc(SCCN3CCN(Cc4ccccc4F)CC3)nc2N)cc1 [Example 25]", "5-HT2A receptor (Rattus norvegicus)", "=", 7.70),
    ("COc1ccc(Cc2c(N)nc(SCCN3CCN(Cc4ccc(C)cc4)CC3)nc2N)cc1 [Example 23]", "5-HT2A receptor (Rattus norvegicus)", "=", 7.70),
    ("Nc1nc(SCCN2CCN(Cc3ccc([N+](=O)[O-])cc3)CC2)nc(N)c1Cc1ccc(F)cc1 [Example 20]", "5-HT2A receptor (Rattus norvegicus)", "=", 6.69),
    ("Nc1nc(SCCN2CCN(Cc3ccccc3Cl)CC2)nc(N)c1Cc1ccccc1Cl [Example 45]", "5-HT2A receptor (Rattus norvegicus)", "=", 7.57),
    ("Nc1nc(SCCN2CCN(Cc3cccc(C(F)(F)F)c3)CC2)nc(N)c1Cc1ccc(F)cc1 [Example 21]", "5-HT2A receptor (Rattus norvegicus)", "<", 7.00),
    ("Nc1cc(N)nc(SCCN2CCN(Cc3ccc(F)cc3)CC2)n1 [Example 3]", "5-HT2A receptor (Rattus norvegicus)", "=", 7.24),
    ("COc1cccc(CN2CCN(CCSc3nc(N)c(Cc4cc(OC)c(OC)c(OC)c4)c(N)n3)CC2)c1 [Example 65]", "5-HT2A receptor (Rattus norvegicus)", "=", 7.47),
    ("Nc1nc(SCCN2CCN(Cc3ccccc3Cl)CC2)nc(N)c1Cc1ccccc1 [Example 13]", "5-HT2A receptor (Rattus norvegicus)", "=", 7.70),
    ("COc1ccccc1Cc1c(N)nc(SCCN2CCN(Cc3ccc([N+](=O)[O-])cc3)CC2)nc1N [Example 34]", "5-HT2A receptor (Rattus norvegicus)", "=", 7.15),
    ("CN(C)c1ccc(Cc2c(N)nc(SCCN3CCN(Cc4ccccc4F)CC3)nc2N)cc1 [Example 53]", "5-HT2A receptor (Rattus norvegicus)", "=", 7.82),
    ("CN(C)c1ccc(Cc2c(N)nc(SCCN3CCN(Cc4ccc([N+](=O)[O-])cc4)CC3)nc2N)cc1 [Example 57]", "5-HT2A receptor (Rattus norvegicus)", "<", 7.00),
    ("Nc1nc(SCCN2CCN(Cc3ccccc3Cl)CC2)nc(N)c1Cc1ccc(Cl)cc1 [Example 47]", "5-HT2A receptor (Rattus norvegicus)", "<", 7.00),
    ("COc1cc(Cc2c(N)nc(SCCN3CCN(Cc4ccccc4Cl)CC3)nc2N)cc(OC)c1OC [Example 67]", "5-HT2A receptor (Rattus norvegicus)", "=", 8.34),
    ("COc1ccc(Cc2c(N)nc(SCCN3CCN(Cc4cccc(OC)c4)CC3)nc2N)cc1 [Example 28]", "5-HT2A receptor (Rattus norvegicus)", "<", 7.00),
    ("COc1cc(Cc2c(N)nc(SCCN3CCN(Cc4cccc(C(F)(F)F)c4)CC3)nc2N)cc(OC)c1OC [Example 69]", "5-HT2A receptor (Rattus norvegicus)", "=", 7.42),
    ("COc1ccc(Cc2c(N)nc(SCCN3CCN(Cc4ccccc4C)CC3)nc2N)cc1 [Example 24]", "5-HT2A receptor (Rattus norvegicus)", "=", 7.74),
]
